Where these numbers come from: the nanobody polyreactivity screen of Harvey et al. (2022)

# assay text: yeast display, Sf9 membrane polyspecificity reagent, FACS + sequencing; frameworks hold sequencing errors
measurement kind: polyreactivity (PSR sort gate)

// known answers, use as guide
Specify polyreactivity (PSR sort gate) for QDQLVESGGGLVQAGGSLRLSCAASGFTFTWNAMGWYRQAPGKERELVAGITRGGSTNYADSVKGRFTISRDNAKNTVYLQMNSLKPEDTAVYYCNVSFYFHHAGYDYWGQGTQVTVSS and stop.
low polyreactivity

Specify polyreactivity (PSR sort gate) for QVQLVESGGGLVQAGGSLRLSCAASGRIFQYYAMGRYGQAPGKERELVARISSRGGSTYYADSVKGRFTISRDNAKNTVYLQMNSLKPEDTAVYYCNTRWYSSYYQPSYNYWGQGTQVTVSS and stop.
high polyreactivity

Specify polyreactivity (PSR sort gate) for QVQLVESGGGLVQAGGSLPLSCAASGSTFAVYAMGWYRQAPGKERELVAAISFSGSTYADSVKGRFTISRDNAKNTVYLQMNSLKPEDTAVYYCAKEYRVFGWWYTKGDYWGQGTQVTVSS and stop.
low polyreactivity

Specify polyreactivity (PSR sort gate) for QVQLVESGGGLVQAGGSLRLSCATYAMGWSRQAPGKERELVASIRSGSTYYADSVKGRFTISRDNAKNTVYLQMNSLKPEDTAVYYCAAYEIYYEFDSWGQGTQVTVSS and stop.
low polyreactivity

Specify polyreactivity (PSR sort gate) for QDQLVESGGGLVQAGGSLRLSCAASGSTFGYYAMGWYRKAPGKERELVAAITSGASTNYADSVKGRFTISRDNAKNTVYLQMNSLKPEDTAVSYCAAGFQTRTPLNEFDYWGQGTQVTVSS and stop.
low polyreactivity

Others:
Specify polyreactivity (PSR sort gate) for QVQLVESGGGLVQAGGSLRLSCAASGRTSVIYAMGWYRQAPGKERELVASIRRGGSTSYADSVKGRFTISRDNAKNTVYLQMNSLIPEDTAVYYCAATLVRRARSGPMGYWGQGTQVTVSS and stop.
high polyreactivity

Specify polyreactivity (PSR sort gate) for QVQLVESGGGLVQAGGSLRLSCAASGGTFTVNAMGLYRQAPGKERELVAAITWDGGTTYYADSVKGRFTISRDNAKNTVYLQMNSLKPEDSAVYYCAAEVDYSAFDYWGQGTQVTVSS and stop.
low polyreactivity

Specify polyreactivity (PSR sort gate) for QVQLVESGGGLVQAGGILRLSCAASGRIIRSYAMGWYRHAPGKERELVAAITSGGSTNYADSVKGRFTISRDNANNTVYLQMNSLKPEDTAVYYCAARWPWYGKLRYYYWGQGTQVTVSS and stop.
high polyreactivity

Specify polyreactivity (PSR sort gate) for QVQLVESGGGLVQAGGSLRLSCAASGIIFRYYVMGWYRQAPGKERELVADITSGGSTYYADSVKGRFTISRDNEKNTVYLQMNSLKPEDTAVYYCAADYQYDWFYYWGQGTQVTVSS and stop.
high polyreactivity

Specify polyreactivity (PSR sort gate) for QVQLVESGGGLVQEGGSLRLSCAASGFTFNNYAMGWYRQAPGKERELVAAISSVGRTYYAYSVKGRFTISRDNAKNTVYLQMISLKPEDTAVYYCNRRWYTHWGQGTQVTVSS and stop.
high polyreactivity

Specify polyreactivity (PSR sort gate) for QVQLVESGGGLVKAGGSLRLSCAASGSTFGSNALGWYRQAPGKERELVAAISNSGGRTYYADSVKGRFTISRDNAKNTVYLQMNSLKPEDTAVYYCAVGSYRDGDYWGQGTQVTVSS and stop.
high polyreactivity

---

# assay text: yeast display, Sf9 membrane polyspecificity reagent, FACS + sequencing; frameworks hold sequencing errors
measurement kind: polyreactivity (PSR sort gate)

Specify polyreactivity (PSR sort gate) for QVQLVESGGGLVQAGGSLRLSCAASGRTFTRYAMGWYRQAPGKERELVAAISGGGGSTYYADSVKGRFTISRDNAKNTVYLQMNSLKPEDTAVYYCAAGPWFYYWGQGTQVTVSS and stop.
low polyreactivity

Specify polyreactivity (PSR sort gate) for QVQLVESGGGLVQAGGSLRLSCAASGRTFGDNAMGWYRQARGKERELVAAISSGDSTYYADSVKGRFTISRDNAKNSVYLQMNSLKPEDTAVYYCAARWRYTFYVSYYYWGQGTQVTVSS and stop.
high polyreactivity

Specify polyreactivity (PSR sort gate) for QVQLVESGGGIVQAGGSLRLSCAASGSTFATYAMGWYRQAHGKERELVAAITRSGGITYYADSVKGRFTISRDNAKKTVYLHMKSLKPEDTAVYYCNARTRSPTFSGRYYWGQATQVTVSS and stop.
high polyreactivity

Specify polyreactivity (PSR sort gate) for QVQLVESGGGLVQAGGILRLSCAASGFIFVDYVMGWSRQAPGKERELVAAINRNGGRPYYADSVKGRFTISRDNEKNTVYLQMNRLKPEDTAVYYCAAVYRSDRYHWYYYWGQGTQVTVSS and stop.
high polyreactivity

Specify polyreactivity (PSR sort gate) for QVQRVESGGGLVQAGGSLRLSCAASGSNFRVYVMGWYRQAPGKERELVARIRYRSGRTNYADSVKGRFTISRDNAKNTVYLQMNSLKPEDTAVYYCAARTPAYARTYGYWGQGTQVTVSS and stop.
high polyreactivity

Specify polyreactivity (PSR sort gate) for QVQLVESGGGLVQAGGSLRLSCAASGIIFDINAMGWYRQAPGKERELVAAITTSVDSTYYADSVKGRFTISRDNAKNTVYLQMNSLKPEDTAVYYCAVAFVQFTQYYYWGQGSQVTVSS and stop.
low polyreactivity

Others:
Specify polyreactivity (PSR sort gate) for QVQLVESGGGLGQAGGSLRLICAASGFIFRYNAMGWYRQAPGKERELVAGISRSGGRTYYADSVKGRFTISRDNAKNTVYLQMNSLKPEDTAVYYCNAEWVGGAGGYYYWGQGTQVTVSS and stop.
low polyreactivity

Specify polyreactivity (PSR sort gate) for QVHLVESVGGLVQAGGSLRLSCAASGRIFYRNAMGCYRQAPGKERELVAAINTGGDGTYYADSVKGRFTISRDNAKNTVYLQMNSLKPEDTAVYYCAADRSSFYWSHGTVYGYDYWGQGTQVTVSS and stop.
low polyreactivity

Specify polyreactivity (PSR sort gate) for QVQLVESGGGLVQAGGSLRLSCAASGSTFFYYTMGWYIQAPGKERELVADITRGGGTTYYADSVKGRFTISRDNAKNTVYLQMNSLKPEDTAVYYCNAPYPNARYWTGWGYYYWGQGTQVTVSS and stop.
high polyreactivity

Specify polyreactivity (PSR sort gate) for QVQLVESGGGLVQAGGTLRLSCAASGGIFSYAMGWYRQAPGKERELVADINSDGSTTYADSVKGRFTISRDNAKNTVYLQMNSLKPEDTAVYYCAADTYFWSYSYNYYYWGQGTQVTVSS and stop.
low polyreactivity

Specify polyreactivity (PSR sort gate) for QVQLVESGGGLVQAGGSLRLSCAASGRIFGYYAMGWYRQAPGKERELVAAIRRSGGSTYADSVKGRFTISRDNAKNTVYLQMNSLKPEDTAVYYCAAWIYEYDYWGQGTQVTVSS and stop.
high polyreactivity

---

# assay text: yeast display, Sf9 membrane polyspecificity reagent, FACS + sequencing; frameworks hold sequencing errors
measurement kind: polyreactivity (PSR sort gate)

Specify polyreactivity (PSR sort gate) for QVQLLESGGGLVQAGGSLRLSCAASGYTFRYYTMGWYRQAPGKERELVAAISGSGGSTYYADSVKGRFTISRDTAKNTVYLQMNSLKPEDTAVYYCNRFYSTSRITQYEFDYWGQGTQVTVSS and stop.
high polyreactivity

Specify polyreactivity (PSR sort gate) for QVQLVESRGGLVQAGGSLRLSCAASGRTVRRYAMGWYRQAAGKARELVASISRGSSTNYADSVKGRFTSSRDNAKNTGYLQMNSLKPEHTAVYYCAALGWSARYRYDYWGQGTQVTVSS and stop.
high polyreactivity

Specify polyreactivity (PSR sort gate) for QVQLVESGGGLVQAGGSLRLSCAASGITFYIYAMGWYRQAPGKERELVAAITWGGDGSTRYADSVKGRFTISRDNAKNTVYLQMNSLKPEDTAVYYCAGGSTFVLFDDMDYWGQGTQVTVSS and stop.
low polyreactivity

Specify polyreactivity (PSR sort gate) for QVQLVESGGGLVQAGGSLRLSCAASGIIFRGNAMGWYRQAPRKEREFVAAISLRGSRTYYADSVKGRFTISRDNAKNTVYLQMNSLKPEDTAVYYCNARGGPSPFGSDYWGQGTQVTVSS and stop.
high polyreactivity

Consider the record given below.
Specify polyreactivity (PSR sort gate) for QVQLVESGGGLVQAGGSLRLSCAASGSTFTPNVMGWSRQAPGKERELVAAINSSGGSTFYADSVKGRFTISRDNAKNTVYLQMNSLKPEDTAVYYCAASWHTPTVYDEYYYWGQGTQVTVSS and stop.
low polyreactivity

---

# assay text: yeast display, Sf9 membrane polyspecificity reagent, FACS + sequencing; frameworks hold sequencing errors
measurement kind: polyreactivity (PSR sort gate)

// known answers, use as guide
Specify polyreactivity (PSR sort gate) for QVQLVESGGGLVQAGGSLRLTCAASRRIFSYYAMGDYIQATGKERELVADINWSGGSTYYADSVKGRFTISRDNAKNTFYLQMNSLKPEDTAVYYCAVDWTSAYGTYYYTPYDSWGQGTQVTVSS and stop.
low polyreactivity

Specify polyreactivity (PSR sort gate) for QVQLVESGGGLVQAGGSLRLSCAASGLIFVSYAMGWYRPAPGKERELVAAINSRGSRTYYADSVKGRFTISRDNAKNTVYLQMNSLKPEDTAVYYCAAGVIRYGGKEEYYYWGQGTQVTVSS and stop.
high polyreactivity

Specify polyreactivity (PSR sort gate) for QVQLVESGGGLVQAGGSLRLSCASSGFTFYKYAMGWYRQAPGKERELVAAITRGDSTYYADSVKGRFTISRDNAKNTVYLQMNSLKPEDTAVYYCNAVFSYRLFNYWGQGTQVTVSS and stop.
high polyreactivity

Specify polyreactivity (PSR sort gate) for QVQLVESGGGLVQAGGSLRLSCAASGRIFYKYAMGWYRQAPGKERELVAGITGSGGSTYYADSVKGRFTISRDNAKNTVYLQMNSLKPEDTAVYYCAKRVSYDYWGQGTQVTVSS and stop.
low polyreactivity

Specify polyreactivity (PSR sort gate) for QVQLVESGGGLVQAGGSLRLSCAASGFTFGFNDMGWYRQAPGKERELVAAITIGGTTNYADSVKGRFTISRDNAKNTVYLQMNSLKPEDTAVYSCAADTRVVYDEDYWGQGTQVTVSS and stop.
low polyreactivity

Others:
Specify polyreactivity (PSR sort gate) for QVQLVESGGGLVQAGGSLRLSCAASGSTFIYNTMGSYRQAPGKERELVATNTDSSDSTNYADSVKGRFTISRDNAKNTVYLQMNSLKPEDTAVYYCAADGEVDIATYPSQITDYDYWGQGTQVTVSS and stop.
low polyreactivity

Specify polyreactivity (PSR sort gate) for QVQLVESAGGLVQAGGSLSLSCAASGSMFIYNAMGWYRQAPGKERELVATISSGGSTTYADSVKGRFTISRDNAKNTVYLQMNSLKPEDTAVYYCATDDPPDQYFYLGYYYWGANDYWGQGTQVTVSS and stop.
low polyreactivity

Specify polyreactivity (PSR sort gate) for QVQLVESGGGLVQAGGSLRLSCAASGRTFTRYAMGWYRQPPGKESELVAAISRGGNTNYADSVKGRFTISRDNAKNTVYLQMNSLKPEDTAVYYCARVYGGYSVPSAYGSWGQGTQVTVSS and stop.
high polyreactivity

Specify polyreactivity (PSR sort gate) for QVQLVESGGGLVQAGGSLRLSCAASGGIFRKYVMGWYRQAPGKERELVAAISTSGGSTYYADSVKGRFTISRDNAKNSVYLQMNSLKPEDTAVYYCAADILYFYGPRVFEFNYWGQGTQVTVSS and stop.
high polyreactivity

Specify polyreactivity (PSR sort gate) for QVQLVESGGGLVQAGGSLRLSCAASGITFADNSMGWYRQAPGKERELVAAISRGGSTYYADSVKGRFTISRDNAKNTVYLQMNSLKPEDTAVYYCAAAGWWRAWGSYLRFYGYDYWGQGTQVTVSS and stop.
low polyreactivity

Specify polyreactivity (PSR sort gate) for QVQLVESGGGLVQAGGSLRLSCAASGGIFVSYAMGWYRQAPGKERELVARINAVDGTNYADSVKGRFTISRDNAKYTVYLQMKSVKPEDTAVYYCAVRSPVLASDYGYYFLRDYWGQGTQVTVSS and stop.
low polyreactivity
